The molecules listed here are annotated with their IC50.
Assay Target: BRD4 BD1 (Homo sapiens)
Assay Details: AlphaScreen binding assay, BRD4 Bromodomain 1

Molecule	Assay Target	IC50
COc1cc(F)ccc1OC(=O)N1C[C@H](C)N(C(C)=O)c2ccc(-c3cnn(C4CC4)c3)cc21 [Example I-1186]	BRD4 BD1 (Homo sapiens)	0.1 to 1 µM
CC(=O)N1c2ccc(C(=O)c3ccccc3)cc2N(C(=O)c2ccco2)C[C@@H]1C [Example I-408]	BRD4 BD1 (Homo sapiens)	1 to 10 µM
CC(=O)N1c2ccc(-c3ccc(N4CCOCC4)nc3)cc2N(C(=O)c2ccco2)C[C@@H]1C [Example I-800]	BRD4 BD1 (Homo sapiens)	1 to 10 µM

Give the measured IC50 for COC(=O)N1c2ccc(-c3cnn(CCS(C)(=O)=O)c3)cc2N(C(=O)Oc2cccnc2)C[C@@H]1C [Example I-1280]
1 to 10 µM

###

Assay Target: BRD4 BD2 (Homo sapiens, UniProt O60885)
Assay Details: AlphaScreen binding assay, BRD4 Bromodomain 2
pIC50: −log10 of the molar value.
# pIC50 values compiled below

Below, each entry is followed by its recorded pIC50 result.
Compound	pIC50
CC(=O)N1c2ccc(Oc3ccccc3)nc2N(C(=O)C2CC2)C[C@@H]1C [Example I-97]	< 6.30
CC(=O)N1c2cc(Cl)c(-c3cnn(C4CC4)c3)cc2N(C(=O)OC(C)C)C[C@@H]1C [Example I-208]	< 6.30
CC(=O)N1c2ccc(-c3ccc(S(C)(=O)=O)cc3)cc2N(C(=O)C2CCC2)C[C@@H]1C [Example I-245]	6.30 to 7.30
CC(=O)N1c2ccccc2N(S(=O)(=O)c2ccccc2Cl)C[C@@H]1C [Example I-942]	< 6.30

Given C#CCOC(=O)N1C[C@H](C)N(C(C)=O)c2ccc(-c3ccc(S(C)(=O)=O)cc3)cc21 [Example I-240] , report its pIC50 on BRD4 BD2 (Homo sapiens, UniProt O60885).
6.30 to 7.30

Tell me pIC50 of CNC(=O)Nc1cc2c(cc1-c1cnn(C3CC3)c1)N(C(=O)OC(C)C)C[C@H](C)N2C(C)=O [Example I-215] when tested on BRD4 BD2 (Homo sapiens, UniProt O60885).
6.30 to 7.30

Specify pIC50 for CC(=O)N1c2ccc(-c3cnc4ccccn34)cc2N(C(=O)c2ccco2)C[C@@H]1C [Example I-391] , system BRD4 BD2 (Homo sapiens, UniProt O60885).
6.30 to 7.30

// fetch pIC50 for CC(=O)N1c2ccccc2N(Cc2nccs2)C[C@@H]1C [Example I-915] ; system: BRD4 BD2 (Homo sapiens, UniProt O60885)
< 6.30

###

Known pIC50 of a selection of compounds
Assay Target: BRD4 BD1 (Homo sapiens, UniProt O60885)
Assay Details: AlphaScreen binding assay, BRD4 Bromodomain 1
pIC50: −log10 of the molar value.

# annotated cases, reported pIC50 shown
COC(=O)N1c2ccc(-c3cnn(C4CC4)c3)cc2N(C(=O)OC2CCC2)C[C@@H]1C 6.00 to 7.00
CCOC(=O)N1C[C@H](C)N(C(C)=O)c2ccc(-c3cnn(C4COC4)c3)cc21 6.00 to 7.00
CC(=O)N1c2ccc(-c3cnn(C4CC4)c3)cc2N(C(=O)Oc2ccc(C)cc2Cl)C[C@@H]1C 6.00 to 7.00
CC(=O)N1c2ccccc2N(Cc2cccc(Oc3ccccc3)c2)C[C@@H]1C < 5.00
COCCn1cc(-c2ccc3c(c2)N(C(=O)OC(C)C)C[C@H](C)N3C(=O)OC)cn1 6.00 to 7.00
C[C@H]1CN(C(=O)C2CC2)c2cc(-c3ccc(C(=O)N4CCNCC4)cc3)ccc2N1C(=O)C1CC1 6.00 to 7.00
CC(C)OC(=O)N1C[C@H](C)N(C(=O)C2CC2)c2ccc(-c3cnn(CC4(C)COC4)c3)cc21 6.00 to 7.00
CC(=O)N1c2ccc(-c3cnn(Cc4ccno4)c3)cc2N(C(=O)C2CC2)C[C@@H]1C 6.00 to 7.00
CC(=O)N1c2ccc(-c3cnn(C4COC4)c3)cc2N(C(=O)C2CCC2)C[C@@H]1C 5.00 to 6.00
CC(=O)N1c2ccc(-c3ccc(CS(N)(=O)=O)cc3)cc2N(C(=O)OC(C)C)C[C@@H]1C 6.00 to 7.00

Tell me its pIC50 given CC(=O)N1c2ccc(-c3cnn(C4CCNCC4)c3)cc2N(C(=O)Oc2ccccn2)C[C@@H]1C as the entry.
6.00 to 7.00

Please indicate pIC50 recorded for CC(=O)N1c2ccccc2N(C(=O)c2cc(C)oc2C)C[C@@H]1C
< 5.00

Please supply the value of reported pIC50 for the item CC(=O)N1c2ccccc2N(S(=O)(=O)Cc2cccc(C#N)c2)C[C@@H]1C
< 5.00

Indicate the recorded pIC50 value for this compound: COc1c(OC(=O)N2C[C@H](C)N(C(C)=O)c3ccc(-c4cnn(C5CC5)c4)cc32)ccnc1C
6.00 to 7.00

Find the measured pIC50 of CC(=O)N1c2ccc(-c3cnn(C4CCNCC4)c3)cc2N(C(=O)Oc2ccc(F)cc2)C[C@@H]1C and report it.
6.00 to 7.00

Find the measured pIC50 of CC(=O)N1c2ccccc2N(C(=O)c2cc3ccccc3o2)C[C@@H]1C and report it.
< 5.00

###

Assay Target: BRD4 BD1 (Homo sapiens, UniProt O60885)
Assay Details: AlphaScreen binding assay, BRD4 Bromodomain 1
Readout: IC50

CC(=O)N1c2ccc(-c3ccc4c(c3)CCN4S(C)(=O)=O)cc2N(C(=O)OC(C)C)C[C@@H]1C 100 to 1000 nM
CC(=O)N1c2ccc(-c3ccc4c(c3)n(C)c(=O)n4C)cc2N(C(=O)c2ccco2)C[C@@H]1C 100 to 1000 nM
CCOC(=O)N1C[C@H](C)N(C(C)=O)c2ccc(-c3cccc(S(N)(=O)=O)c3)cc21 1000 to 10000 nM

Output measured IC50 for this item: COc1cc(Cl)ccc1OC(=O)N1C[C@H](C)N(C(C)=O)c2ccc(-c3cnn(C4CC4)c3)cc21
100 to 1000 nM

Identify measured IC50 corresponding to CC(=O)N1c2ccc(-c3ccc(S(C)(=O)=O)cc3)cc2N(C(=O)NCc2ccco2)C[C@@H]1C
> 10000 nM

Answer with the recorded IC50 of COCC(=O)N1c2ccc(-c3ccc(S(C)(=O)=O)cc3)cc2N(C(=O)c2ccco2)C[C@@H]1C only.
> 10000 nM

###

Assay Target: BRD4 BD2 (Homo sapiens)
Assay Details: AlphaScreen binding assay, BRD4 Bromodomain 2
Below is a list of entries, each paired with its recorded IC50 value.

Molecule	IC50
CC(=O)N1c2ccc(-c3ccc(NS(=O)(=O)C4CC4)cc3)cc2N(C(=O)c2ccco2)C[C@@H]1C [Example I-287]	< 50 nM
CC(=O)N1c2ccc(-c3ccc(F)cc3)cc2N(C(=O)c2ccco2)C[C@@H]1C [Example I-818]	< 50 nM
CC(=O)N1c2ccc(-c3ccc(-n4cccn4)c(F)c3)cc2N(C(=O)c2ccco2)C[C@@H]1C [Example I-814]	< 50 nM

Supply measured IC50 of CC(=O)N1c2ccc(-c3ccc(NS(C)(=O)=O)c(F)c3)cc2N(C(=O)C2CCC2)C[C@@H]1C [Example I-1181] in your reply.
50 to 500 nM

###

Assay Target: BRD4 BD1 (Homo sapiens)
Assay Details: AlphaScreen binding assay, BRD4 Bromodomain 1
pIC50: −log10 of the molar value.
Measured pIC50, listed per entry.

Worked set:
Compound	Recorded Value
CC(=O)N1c2ccc(-c3cnn(Cc4nonc4C)c3)cc2N(C(=O)OC(C)C)C[C@@H]1C	6.00 to 7.00
COc1ccc(OC(=O)N2C[C@H](C)N(C(C)=O)c3ccc(-c4cnn(C5CC5)c4)cc32)cn1	6.00 to 7.00

Let me know recorded pIC50 for CC(=O)N1c2ccc(-c3cnn(C4COC4)c3)cc2N(C(=O)[C@H]2CC2(Cl)Cl)C[C@@H]1C (single isomer, unassigned) , thanks.
< 5.00

Tell us which pIC50 value is on record for CC(=O)N1c2ccc(-c3cnn(C4COC4)c3)cc2N(C(=O)C(C)C)C[C@@H]1C
< 5.00

###

A collection of molecules and their measured IC50
Assay Target: BRD4 BD2 (Homo sapiens)
Construct: made in house
Assay Details: AlphaScreen binding assay, BRD4 Bromodomain 2

Please review the following examples before continuing.
Molecule	IC50
CC(=O)N1c2ccc(-c3cnn(CCC#N)c3)cc2N(C(=O)Oc2ccc(F)cc2F)C[C@@H]1C	< 50 nM
CC(=O)N1c2ccc(-c3cnn(C4COC4)c3)cc2N(C(=O)OCC(F)F)C[C@@H]1C	> 500 nM
CC(C)OC(=O)N1C[C@H](C)N(C(=O)C2CC2)c2ccc(-c3cnn(CCNS(C)(=O)=O)c3)cc21	> 500 nM
CC(=O)N1c2ccc(-c3cnn(CC(C)C)c3)cc2N(C(=O)C2CC2)CC1C (stereo not drawn)	50 to 500 nM
CC(=O)Nc1cccc(C(=O)N2C[C@H](C)N(C(C)=O)c3ccc(-c4ccc(S(C)(=O)=O)cc4)cc32)c1	> 500 nM
CC(=O)N1c2ccc(-c3cnn(CCO)c3)cc2N(C(=O)OCCC(F)(F)F)C[C@@H]1C	> 500 nM

Using BRD4 BD2 (Homo sapiens) as the test system, report measured IC50 of CC(=O)N1c2ccc(-c3ccc(S(=O)(=O)CC(C)C)cc3)cc2N(C(=O)OC(C)C)C[C@@H]1C .
50 to 500 nM

Specify the recorded IC50 for CC(=O)N[C@@H]1CCN(C(=O)c2ccc(-c3ccc4c(c3)N(C(=O)OC(C)C)C[C@H](C)N4C(=O)C3CC3)cc2)C1 , system: BRD4 BD2 (Homo sapiens).
50 to 500 nM

Name the value of IC50 reported for CC(=O)N1c2ccc(-c3ccc4c(ccn4C)c3)cc2N(C(=O)c2ccco2)C[C@@H]1C when tested on BRD4 BD2 (Homo sapiens).
< 50 nM

State, for BRD4 BD2 (Homo sapiens), measured IC50 of the molecule listed here: COC(=O)N1c2ccc(-c3ccc(CS(N)(=O)=O)cc3)cc2N(C(=O)OC(C)C)C[C@@H]1C
> 500 nM

Give IC50 for this entry on BRD4 BD2 (Homo sapiens): CC(=O)N1c2ccc(-c3cccc(S(=O)(=O)N(C)C)c3)cc2N(C(=O)C2CC2)C[C@@H]1C
50 to 500 nM

Using BRD4 BD2 (Homo sapiens) as the test system, report measured IC50 of CC(=O)N1c2ccc(-c3ccc(S(C)(=O)=O)cc3)nc2N(C(=O)OC(C)C)C[C@@H]1C .
> 500 nM
